Biological target: Rat brain protein farnesyltransferase (Rattus norvegicus, UniProt Q02293+Q04631)
Construct: Rat brain protein farnesyltransferase activity is measured; from tissue; host or cells: rat brain
Sequence (Q02293 whole entry, one chain of several): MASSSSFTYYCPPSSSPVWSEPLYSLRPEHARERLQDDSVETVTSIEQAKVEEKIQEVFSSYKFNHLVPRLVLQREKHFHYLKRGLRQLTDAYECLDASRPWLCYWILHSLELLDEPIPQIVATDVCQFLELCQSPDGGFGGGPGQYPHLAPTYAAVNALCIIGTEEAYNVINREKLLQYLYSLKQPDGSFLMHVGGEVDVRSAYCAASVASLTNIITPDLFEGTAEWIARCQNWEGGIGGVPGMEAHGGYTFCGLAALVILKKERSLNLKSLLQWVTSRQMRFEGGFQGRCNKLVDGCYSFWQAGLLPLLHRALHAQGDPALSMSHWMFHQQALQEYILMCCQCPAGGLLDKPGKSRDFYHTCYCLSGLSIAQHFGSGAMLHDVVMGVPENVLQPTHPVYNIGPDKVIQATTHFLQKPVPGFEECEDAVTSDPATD
Assay: % inhibition of farnesylation, scintillation proximity assay with biotin-K Ras B fragment
Assay type: biochemical
Settings: read-out: % inhibition at 1 × 10^-6 M
Experimental: The ability of the compounds of the invention to inhibit protein farnesyltransferase or protein geranylgeranyltransferase can be measured according to the method of Moores, et al., J. Biol. Chem. 266: 14603 (1991) or the method of Vogt, et al., J. Biol. Chem. 270:660-664 (1995). […] In addition, in vitro inhibition of protein farnesyltransferase may be measured by the following procedure. […] The % inhibition of protein farnesyltransferase was determined for representative compounds of the invention.
Where a name gives a salt, the structure may show the parent alone.
Metric name: inhibition at 1 µM (%)
Answers are plain numbers, in %.

Items follow; give inhibition at 1 µM for each.
1. CSCC[C@H](NC(=O)c1ccc(CSCc2ccccc2)cc1-c1ccccc1C)C(=O)O [Example 554, lithium salt]
2. CSCC[C@H](NC(=O)c1ccc(COC2(c3ccccc3)CCN(C(=O)OC(C)(C)C)CC2)cc1-c1ccccc1C)C(=O)O [Example 816, lithium salt]

96
87

Give inhibition at 1 µM for each listed item.
1. CSCC[C@H](NC(=O)c1ccc(COCc2ccsc2)cc1-c1ccccc1C)C(=O)O [Example 274, Lithium salt]
2. CSCC[C@H](NC(=O)c1ccc(CSCc2ccccc2C)cc1-c1ccccc1C)C(=O)O [Example 557, lithium salt]

94
93

----------
Biological target: Rat brain protein farnesyltransferase (Rattus norvegicus, UniProt Q02293+Q04631)
Construct: Rat brain protein farnesyltransferase activity is measured; from tissue; host or cells: rat brain
Experiment: % inhibition of farnesylation, scintillation proximity assay with biotin-K Ras B fragment
Format: biochemical
Details: Table 3; 1 × 10^-7 M
Metric name: % inhibition at 1 × 10^-7 M
Include the unit right after the number.

INSERT INTO measurements (compound, reported_measurement) VALUES
  ('CSCC[C@H](NC(=O)c1ccc(CN[C@H](/C=C\CC(C)C)CC2CCCCC2)cc1-c1ccccc1C)C(=O)O [Example 526]', '96%');

Hello, I would appreciate it if you could give % inhibition at 1 × 10^-7 M for each entry below.
1. CSCC[C@H](NC(=O)c1ccc(CN2CCCC(OCC3CCCCC3)C2)cc1-c1ccccc1C)C(=O)O (stereo partly shown) [Example 990]
2. CSCC[C@H](NC(=O)c1ccc(CN(Cc2ccc(Cl)cc2)c2ccccc2)cc1-c1ccccc1C)C(=O)O [Example 781]

["84%", "91%"]

The reported % inhibition at 1 × 10^-7 M of the compound CSCC[C@H](NC(=O)c1ccc(CN[C@H](CSC(C)(C)C)CC2CCCCC2)cc1-c1ccccc1C)C(=O)O [Example 622] was 95%

----------
For each of the molecules below, state its % inhibition at 1 × 10^-6 M.
Target: Rat brain protein farnesyltransferase (Rattus norvegicus, UniProt Q02293+Q04631)
Construct: Rat brain protein farnesyltransferase activity is measured; from tissue; host or cells: rat brain
Experiment: % inhibition of farnesylation, scintillation proximity assay with biotin-K Ras B fragment
Type: biochemical
Conditions: Table 2; 1 × 10^-6 M
Give bare numbers, in %.

INSERT INTO results (molecule, unit_text, reported_measurement) VALUES
  ('CCS(=O)(=O)C[C@H](CC1CCCCC1)NCc1ccc(C(=O)N[C@@H](CCSC)C(=O)O)c(-c2ccccc2C)c1 [Example 620]', '%', 98),
  ('CSCC[C@H](NC(=O)c1ccc(CNc2ccc(C(O)(C(F)(F)F)C(F)(F)F)cc2)cc1-c1ccccc1)C(=O)O [Example 693]', '%', 53);

# return % inhibition at 1 × 10^-6 M for each item in the list
1. CSCC[C@H](NC(=O)c1ccc(CNc2ccc(N3CCCCC3)cc2)cc1-c1ccccc1C)C(=O)O [Example 862]
2. CSCC[C@H](NC(=O)c1ccc(CN(CCC#N)Cc2ccccc2)cc1-c1ccccc1)C(=O)O [Example 649]
3. CSCC[C@H](NC(=O)c1ccc(CN(C2CC2)C2(Cc3ccccc3)CCC2)cc1-c1ccccc1C)C(=O)O [Example 329]
4. CSCC[C@H](NC(=O)c1ccc(CN(C)C(C)(C)Cc2ccccc2)cc1-c1ccccc1C)C(=O)O [Example 309]
5. CSCC[C@H](NC(=O)c1ccc(S(=O)(=O)N(Cc2ccccc2)c2ccccc2)cc1-c1ccccc1C)C(=O)[O-].[Li+] [Example 768]

1. 95
2. 86
3. 98
4. 98
5. 67

Your task in this section: give % inhibition at 1 × 10^-6 M for each listed record.
1. CSCC[C@H](NC(=O)c1ccc(NC(=O)Cc2ccc(C)cc2)cc1-c1ccccc1C)C(=O)O [Example 541]
2. CSCC[C@H](NC(=O)c1ccc(C=Cc2ccccc2Oc2ccccc2)cc1-c1ccccc1C)C(=O)[O-].[Li+] [Example 453]
3. CSCCC(NC(=O)c1ccc(NC(=O)Cc2cscn2)cc1-c1ccccc1)C(=O)O (stereo not drawn) [Example 162]
4. CSCC[C@H](NC(=O)c1ccc(CNc2ccccc2F)cc1-c1ccccc1)C(=O)O [Example 642]

[37, 90, 12, 48]

// batch mode: one % inhibition at 1 × 10^-6 M value per listed entry
1. Cc1ccccc1-c1cc(CN(C2CC2)C2(Cc3ccccc3)CCCC2)ccc1C(=O)N[C@@H](CCS(C)(=O)=O)C(=O)O [Example 345]
2. CSCCC(NC(=O)c1ccc(NC(=O)c2cncnc2)cc1-c1ccccc1)C(=O)O (stereo not drawn) [Example 219]
3. CSCC[C@H](NC(=O)c1ccc(CN(CCc2ccccc2)C(C)C)cc1-c1ccccc1C)C(=O)O [Example 835]

91
56
96

For CSCC[C@H](NC(=O)c1ccc(CN(C(C)C)C2(Cc3ccccc3)CCC2)cc1-c1ccccc1C)C(=O)O [Example 331] on Rat brain protein farnesyltransferase (Rattus norvegicus, UniProt Q02293+Q04631), measured % inhibition at 1 × 10^-6 M was 98
